Just for reference, the RNAGym collection of RNA variant scans (doi:10.7554/elife.80360) is where these values come from.

B1: HDV Ribozyme (parent)
chain: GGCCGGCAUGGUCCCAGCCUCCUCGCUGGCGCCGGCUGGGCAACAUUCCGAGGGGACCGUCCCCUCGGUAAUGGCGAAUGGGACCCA

Variants of: B1
Assay: self-cleavage, relative activity (ratio to wild type); higher = more cleavage; co-transcriptional
Label scheme for self-cleavage: lower than 0.1 is no, 0.1 and above is yes.

>>> group("GGCCGGCAUGGUCCCAGCCUCCUCGCUGGCGCCGGCUGGGCAACAUUCCGAGGUGACCGUCCCCUCGGUAAUGGCGAGUGGGACCCA")
"yes"
>>> group("GGCCGGCAUGGUCCCAGCCUCCUCGCUGGCGCCGGCUGGGCAAAGUUCCGAGGGGACCGUCCCCUCGGUAAUGGCGAAUGGGACCCA")
"yes"
>>> group("GGCCGGCAUGGUCCCAGCCUCCUCUCUGGCGCCGGCUGGGCAACAAUCCGAGGGGACCGUCCCCUCGGUAAUGGCGAAUGGGACCCA")
"no"
>>> group("GGACGGCAUGGUCCCAGCCUCCUCGCUGGCGCCGGCUGGGCAACAUUCCGAGGGGACCGUCCCCUCGGUAAUGGCUAAUGGGACCCA")
"yes"
>>> group("GGCCGUCAUGGUCCCAGCCUCCUCGCUGGCGCCUGCUGGGCAACAUUCCGAGGGGACCGUCCCCUCGGUAAUGGCGAAUGGGACCCA")
"no"
>>> group("GGCCGGCAUGGUCCCAGCCUCCUCGCUGGCGCCGGCCGGGCAACAUUCCGAGGGGACCGUCCCCUCGGUAAUGGCGAAUGGGACGCA")
"yes"
>>> group("GGCCGGCAUGGUCCCAGCCUCCUCGCUGGCGCCGGCUGGGCAACAUUCCGAGGGGACCGUCCCCUCGGUAAUUGCGCAUGGGACCCA")
"no"
>>> group("GGCCGGCAUGGUCCCAGCCACCUCGCUGGCGCCGGCUGGGCAGCAUUCCGAGGGGACCGUCCCCUCGGUAAUGGCGAAUGGGACCCA")
"no"
>>> group("GGCCGGCAUGGUCCCAGCCUCCUCGCUGGCGCCGGCUGGACAACAUUCCGAGGGGACCUUCCCCUCGGUAAUGGCGAAUGGGACCCA")
"yes"
>>> group("GGCCGGCAUGGUCCCAGCCUCCUCGCUGGCGCCGGCUGGGCAACAUUCCGAGGGGACCGUCCCCUCGGUAAUGGCUAAUUGGACCCA")
"yes"
>>> group("GGCCGGCAUGGUCCCAGCCUCCUCGAUGGCGCGGGCUGGGCAACAUUCCGAGGGGACCGUCCCCUCGGUAAUGGCGAAUGGGACCCA")
"yes"
>>> group("GGCCGUCAUGGUCCCAGCCUCCUCGCUGGCGCCGGCUGGGCAACAUUCCGAGGGGACCGUCCCCGCGGUAAUGGCGAAUGGGACCCA")
"yes"
>>> group("GGCCGGCAUGGUCCCAGCCUCCUGGCUGGCGCCGGCUGGGCAACAUUCCGAGGGGACCAUCCCCUCGGUAAUGGCGAAUGGGACCCA")
"no"
>>> group("GGCCAGCAUGGUCCCAGCCUCCUCGCAGGCGCCGGCUGGGCAACAUUCCGAGGGGACCGUCCCCUCGGUAAUGGCGAAUGGGACCCA")
"yes"
>>> group("GGCCGGCAUGGUCCCAGCCUCCUCGCUGACGCCGGCUGGGCAACAUUCCGAGGGGACCGUCCCCUCGGUAAUGUCGAAUGGGACCCA")
"no"
>>> group("GGCCGGCAUGGUCCCAGCCUCCUCGCUGGCGCCGGCAGGGCAACAUUCCGAGGGGACCGUCCCCUCGCUAAUGGCGAAUGGGACCCA")
"no"
>>> group("GGCCGGCAUGGUCCCAGCCUCCUCGCUGGCGCCGGCUGGGCAACAUUCCGAGGGGACCCUCCCCUCGGUAAUGGCGAAUGGGACCCC")
"yes"
>>> group("GGCCGGCAUGGUCCCAGCCUCCUCGCUGGCGCCGGCUGGGCAUCAUUCCGAGGGGACCGUCCCCUCGGUAAUGGCGAAUGGCACCCA")
"no"
>>> group("GGCCGGCAUGGUCCCAGCCUCCUCGCUGGCGCCGGCUGGGCACCAUUCCGAGGGGACCGUCUCCUCGGUAAUGGCGAAUGGGACCCA")
"yes"
>>> group("GGCCGGCAUUGUCCCAGCCUCCUCGCAGGCGCCGGCUGGGCAACAUUCCGAGGGGACCGUCCCCUCGGUAAUGGCGAAUGGGACCCA")
"yes"
>>> group("GGCCGGCAUGGUUCCAGCCGCCUCGCUGGCGCCGGCUGGGCAACAUUCCGAGGGGACCGUCCCCUCGGUAAUGGCGAAUGGGACCCA")
"yes"
>>> group("CGCCGGCAUGGUCCCAGCCUCCUCGCUGGCGCCGGCUGGGCAACAUUCCGAGGGGACCGUCCCCUCGGUAAUGGCGGAUGGGACCCA")
"no"
>>> group("GGCCGGCAUGGUGCCAGCCUCCUCGCUGGCGCCGGCUAGGCAACAUUCCGAGGGGACCGUCCCCUCGGUAAUGGCGAAUGGGACCCA")
"no"
>>> group("GGCCGGCAUGGUCCCAGCCUCCUCGCUGGGGCCGACUGGGCAACAUUCCGAGGGGACCGUCCCCUCGGUAAUGGCGAAUGGGACCCA")
"yes"
>>> group("GGCCGGCAUGGUCCCAGCCUUCUCGCUGGCGCCGGCUGGGCAACAUUCCGAGGGGACCGUCCCCUCGGUAAUGGCGAAUCGGACCCA")
"yes"
>>> group("GGCCGGCAUGGUCCCAGCCUCCUCGCUGGCGCCGGCUGGGCAACAGUCCGAGGGGACCGUCCCCUCGGGAAUGGCGAAUGGGACCCA")
"yes"
>>> group("GGCCGGCAUGGUCCCAGCCUCCUCGCUGGCGCCGGCUGGGCAACAUUCCGAGGGGACCGUCCCCACGGUAAUGGCGCAUGGGACCCA")
"yes"
>>> group("GGCCCCCAUGGUCCCAGCCUCCUCGCUGGCGCCGGCUGGGCAACAUUCCGAGGGGACCGUCCCCUCGGUAAUGGCGAAUGGGACCCA")
"yes"
>>> group("GGCCGGCAUGGUCCCAGCCUCCUCGCUGGCGCCGGCUGGGCAAGAUUCCGAGGUGACCGUCCCCUCGGUAAUGGCGAAUGGGACCCA")
"yes"
>>> group("GGCCGGCAUGGUCCCAGCCUCCUCGCUGGCGCCGGCUGGGCAACAUUCAGAGGGGACCGUCCCCUCGGUAAUGGCGACUGGGACCCA")
"yes"
>>> group("GGCCGGCAUGGUCCCAGCCUCCUCGCUGGCGCCGGCUGUGCAACAUUCCGAGGGGACCGUCCCCUCGGUAAUGGCGAAUGGGACCUA")
"yes"
>>> group("GGCCGGCAUGGUCCCAGCCUCCUCGCUGGCGGCGGUUGGGCAACAUUCCGAGGGGACCGUCCCCUCGGUAAUGGCGAAUGGGACCCA")
"yes"
>>> group("GGCCGGCAUGGUCCCAGCCUCCUCGCUGGCGCCGGCUGGGCAACAUUCCUAGGGGACCGUCCCCUCGGUAAUGGCGAAUGGGACCCU")
"yes"
>>> group("GGCCGGCAUGGUCCCAGCCUCCUCGCUGGCGCCGGUUGGGCAACCUUCCGAGGGGACCGUCCCCUCGGUAAUGGCGAAUGGGACCCA")
"no"
>>> group("GGCCGGCAUGGUCCCAGCAUCCUCGCUGGCGCCGGCUGGGCAACAUUCCGAGGGGACCGUCCCCUCCGUAAUGGCGAAUGGGACCCA")
"no"
>>> group("GGCCGGCAUGGUCCCAGCCUCCUCGCUGGCGCCGGCUGGGCAACAUUCCGAGGGGACCGUCCCUUCGGUAAUGGCGAAUGGUACCCA")
"yes"
>>> group("GGCCGGCAUGGUCCCAGCCUCCUCGCUGGCGCCGGCUGGGCAACAUUCCGAGGGGACCGUCCCCUCGGUACUGGCGAAUGGGGCCCA")
"yes"
>>> group("GGCCGGCAUGGUCCCAGCCUCCUCGCUGGCGCCGGCUGGGCAACAUUCCGAGGGGACCGUCCCCUCGGUACUGGCGAAUGGGACGCA")
"yes"
>>> group("GGCCGGCAUGGUCCCAGCCUCCUCGCUCGCGCCGGCGGGGCAACAUUCCGAGGGGACCGUCCCCUCGGUAAUGGCGAAUGGGACCCA")
"no"
>>> group("GGCCGGCAUGGUCCCAGCCUCCUCGCUGGCGCCGGCUGGGCAACAUUCCGAGGGGACUGUCCCCUCGUUAAUGGCGAAUGGGACCCA")
"yes"
>>> group("GGCCAGCAUGGUCCCAGCCUCCUCGCUGGCGCCGGCGGGGCAACAUUCCGAGGGGACCGUCCCCUCGGUAAUGGCGAAUGGGACCCA")
"no"
>>> group("GGCCGGCAUGGUCCCAGCCUCCUCGCUGGCGCCGGCUGGGCAACAUUCCGAGGGGACUGUCCCCUCGGUAAUGGCGAAUGGGACCUA")
"yes"
>>> group("GGCCGGCAUGGUCCCAGGCUCCUCGCUGGCGCCGGCUGGGCAACAUUCCGAGGGGACCGUCCCCUCGGUAAUGGCGAAUGGGACCCC")
"yes"
>>> group("GGCCGGCAUGGUCCCAGCCUCCUCGCUGGCGCCGGCUGGGCAACAUUCCGUGGGGACCGUCCCCUCGGUAAUGGCGAAUGGGAUCCA")
"yes"
>>> group("GGCCGGCAUGGUCCCAGCCUCCUCGCUGGCGCCGGCUGGGCAACAUUCCGAGGGGACUGUCCCCUCGGUAAUGGCGAAUGGGACCAA")
"yes"
>>> group("GGCCGGCAUGGUCCCAGCCUCCUCUCUGGCGCCGGCUGGGCAACAUUCCGAGGGGGCCGUCCCCUCGGUAAUGGCGAAUGGGACCCA")
"no"
>>> group("GGCCGGCAUGGUCCCAGUCUCCUCGCUGGCGCCGGCUGGGCAACAUUCCGAGGGGACCGUCCCCUCGGUAAUGGGGAAUGGGACCCA")
"yes"
>>> group("GGCCGGCAUAGUCCCAGCCUCCUCGCUGGCGCCGGCUGGGCAACAUUCCGAGGGGACCGUCCCCUCGGUAAUGGCGAAUGGAACCCA")
"yes"
>>> group("UGCUGGCAUGGUCCCAGCCUCCUCGCUGGCGCCGGCUGGGCAACAUUCCGAGGGGACCGUCCCCUCGGUAAUGGCGAAUGGGACCCA")
"yes"
>>> group("GGCCGGCAUGGUCCCAGCCUCCUCGCUGGCGCCGGCUGGGCAACAUUCCGACGGGACCGUCCCCUCGGUAGUGGCGAAUGGGACCCA")
"yes"
>>> group("GGCCGGCAUGGUCCCAUCCUCCUCGCUGGCGCUGGCUGGGCAACAUUCCGAGGGGACCGUCCCCUCGGUAAUGGCGAAUGGGACCCA")
"yes"
>>> group("GGCCGGCAUGGGCCCAGCCUCCUCGCUGGCGCCGGCUGGGCAACAUUCCGAGGGGACCGUCCCCUCGGUAAUGGCGAAUGAGACCCA")
"yes"
>>> group("GGCCGGCAUGGUCCCAGCCUCCUCGCUGGCGCCGGCUGGGCAACAUUCCGAGGGGAGCGUCCCCUCGGUUAUGGCGAAUGGGACCCA")
"yes"
>>> group("GGCCGGCAUGGUCCCAGCCUCCUCGCUGGAGCCGGCUGGGCAACAUUCCGAGGGGGCCGUCCCCUCGGUAAUGGCGAAUGGGACCCA")
"yes"
>>> group("GGCCGGCAUGGUCCCAGCCUCCUCGCUGGCGCCGGCUGGGCAACAUUCCGAGGGGACCGUCCCCCCGGUAAUGGCGAAUGGGACCCU")
"yes"
>>> group("GGCCGGCAUCGUCCCAGCCUCCUCGCUGGCGCCGGCUGGGCAACAUUCCGAGGGGACCGUCCCCUCGCUAAUGGCGAAUGGGACCCA")
"yes"
>>> group("GGCCGGCUUGGUCCCAGCCUCCUCGCUGGCGCCGGCUGGGCAACAUUCCGAGGGGACCGUCCCCUCGGUAAUGGCGCAUGGGACCCA")
"no"
>>> group("GGCCGGCAUGGUCCCAGCUUCCUCGCUGGCGCCGGCUGGGCAACAUUCCGAGGGGACCGUCCCCUCGGUAAUGGCGAAUGGGACCCA")
"yes"
>>> group("GGCCGCCAUGGUCCCAGCCUCCUCGCUGGCGCCGGCUGGGCAACAUUCCGAGGGGACCGUCCCCUCGGUAGUGGCGAAUGGGACCCA")
"no"
>>> group("GGCCGGCAUGGUCCCAGCCUCCUCGCUGGCGCCGGCUGGGCAACAUUCCGAGGGGACCGUCCCCUCUGUACUGGCGAAUGGGACCCA")
"yes"
>>> group("GGCCGGCAUGGUCCCGGCCUCCUCGCUGGCGCCGGCUGGGCAACAUUCCGAGGGGACCGUCCCCCCGGUAAUGGCGAAUGGGACCCA")
"yes"
